Would you kindly list composite z-score for each of these molecules?
Assay: binders of probe aFST on microarray, primary screen, stem cell growth factor project, biochemical, small-molecule microarray, fluorescence 635/667 (AID 1086);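 also: score merges 667 nm fluorescence with signal-to-noise of each printed compound spot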
Conditions: higher = more signal

Reported composite z-score of COc1ccc(C#Cc2ccc3c(c2)[C@]2(C(=O)N3)[C@H](c3ccc(O)cc3)N3[C@H](c4ccccc4)[C@H](c4ccccc4)OC(=O)[C@H]3[C@@H]2C(=O)O)cc1 : -0.541

Reported composite z-score of O=C1O[C@@H](c2ccccc2)[C@@H](c2ccccc2)N2[C@@H](c3ccc(OCCO)cc3)[C@]3(C(=O)Nc4ccccc43)[C@@H](C(=O)O)[C@H]12 : 0.0284

Reported composite z-score of COCCOC(=O)N1C(=O)[C@@]2(c3ccccc31)[C@H](C(=O)N1CCN(c3ncccn3)CC1)[C@H]1C(=O)O[C@H](c3ccccc3)[C@H](c3ccccc3)N1[C@@H]2c1ccc(O)cc1 : -0.0574

Reported composite z-score of CC(C)OC(=O)C=C1C[C@@H](c2ccc(C(F)(F)F)cc2)O[C@@H](c2ccc(C(F)(F)F)cc2)O1 : 0.0006

Reported composite z-score of O=C1NC(=O)C2C1C=CC(C(O)c1cccc3ccccc13)N2Nc1ccc(Cl)cc1Cl (stereo not drawn) : 1.34

Reported composite z-score of COC(=O)[C@@]1(Cc2ccc(OC)cc2)[C@H]2c3cc(C(=O)N(C)C)n(CCO)c3C[C@H]2CN1C(=O)c1ccccc1 : 0.871

Reported composite z-score of C=C(CCCC)/C(=C/C[C@@H](OC(=O)c1ccncc1)c1ccccc1OCCO)c1cnc2ccccc2c1 : 0.574

Reported composite z-score of COC(=O)c1nc2oc1CC[C@@H](CO)NC(=O)N(C)Cc1cnnn1C[C@H](Cc1ccccc1)NC2=O : -1.08

Reported composite z-score of O=C(NCC(F)(F)F)[C@@H]1c2ccccc2C(=O)N(Cc2cc(F)cc(C(F)(F)F)c2)[C@H]1c1ccc(CO)cc1 : -0.317

Reported composite z-score of [N-]=[N+]=NCc1ccccc1[C@@H]1OC(c2ccc(OCCCO)cc2)=N[C@]1(CCS(=O)(=O)c1ccccc1)C(=O)NCC(O)CO (stereo partly drawn) : 0.923

Reported composite z-score of COCCOC(=O)N1C(=O)[C@@]2(c3cc(C#CC4=CCCCC4)ccc31)[C@H](C(=O)N1CCCCCCC1)[C@H]1C(=O)O[C@H](c3ccccc3)[C@H](c3ccccc3)N1[C@@H]2c1ccc(O)cc1 : 0.409

Reported composite z-score of COCCOC(=O)N1C(=O)[C@@]2(c3cc(C#CC4=CCCCC4)ccc31)[C@H](C(N)=O)[C@H]1C(=O)O[C@H](c3ccccc3)[C@H](c3ccccc3)N1[C@@H]2c1ccccc1OCCO : 0.306

Reported composite z-score of CC(c1ccccc1)C(O)C1C=CC2C(=O)N(c3ccccc3)C(=O)C2N1Nc1ccc([N+](=O)[O-])cc1 (stereo not drawn) : 0.745
